target: T1, MB peptide complexed with HLA-A*02:01 on T2 cells (human); experiment: flow cytometry, peptide-loaded T2 cells;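 also: binding of single-chain Fv antibody constructs, raised in XenoMouse, to peptide-pulsed T2 cells measured by flow cytometry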
T1 construct: whole, on cells
testReadout: Signal/background

binder	testReadout	numericValue
18089-B2 (scFv, scFv in bacterial lysate, detected with anti-Flag M2) scFv: EVQLLESGGGLVQPGGSLRLSCAASGFTFSSYAMSWVRQAPGRGLEWVSTISISGGSTNYADSVKGRFTISRDNSKNTLYLQMNSLRAEDTAVYYCAKDGGSGWFPKLLHYGLDVWGQGTTVTVSSGGGGSGGGGSGGGGSELQMTQSPSSLSASVGDRVTITCQASQDISNYLNWYQQKPGKAPKLLIYAASSLQSGVPSRFSGSGSGTDFTLTISSLQPEDFATYYCQQSYSIPLTFGGGTKVEIK	Signal/background	1.1
18181-F1 (scFv, scFv in bacterial lysate, detected with anti-Flag M2) scFv: EVQLLESGGGLVKPGGSLRLSCAASGFTFSNAWMSWVRQAPGKGLEWVGRIKGNTYGGTTDYAAPVKGRFTISRDDSKNTLFLQMNSLKTEDTAVYYCTTPSYSGSYYNYFSVMDVWGQGTTVTVSSGGGGSGGGGSGGGGSELVMTQSPSSLSASVGDRVTITCRTSQSISSYLNWYQQKPGRAPKLLIFAASSLQGGVPSRFSGSGSGTDFTLTISSLQPEDFATYYCQQTYSSPFTFGPGTKLEIK	Signal/background	1
18179-D11 (scFv, scFv in bacterial lysate, detected with anti-Flag M2) scFv: EVQLLESGGGLVKPGGSLRLSCAASGFTFSNAWMSWVRQAPGKGLEWVGRIKGNTYGGTTDYAAPVKGRFTISRDDSKNTLFLQMNSLKTEDTAVYYCTTPSYSGSYYNYFSVMDVWGQGTTVTVSSGGGGSGGGGSGGGGSELQMTQSPSSLSASVGDRVTITCRTSQSISSYLNWYQQKPGRAPKLLIFAASSLQGGVPSRFSGSGSGTDFTLTISSLQPEDFATYYCQQTYSMPFTFGPGTKVDIK	Signal/background	1
